pKi: −log10 of the molar value.
Endpoint: pKi

Q) Quote hCA I (Homo sapiens) pKi for entry Oc1ccc(C=Cc2cc(O)cc(O)c2)cc1 [RSV, 3,4′,5-trihydroxystilbene, reference compound] .
A) 5.66

Q) # return pKi of COc1ccc(/C=C/c2ccc(O)cc2)cc1 (system: hCA I (Homo sapiens))
Sequence (P00915 whole entry): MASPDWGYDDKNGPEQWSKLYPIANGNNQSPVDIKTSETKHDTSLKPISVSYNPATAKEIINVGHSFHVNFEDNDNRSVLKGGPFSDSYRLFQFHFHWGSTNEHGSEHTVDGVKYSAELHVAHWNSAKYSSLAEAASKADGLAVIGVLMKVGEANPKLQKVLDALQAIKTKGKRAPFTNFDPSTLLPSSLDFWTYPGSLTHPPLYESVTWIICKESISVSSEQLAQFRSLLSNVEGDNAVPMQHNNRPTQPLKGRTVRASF
A) < 4.00

Q) Specify the recorded pKi for Oc1ccc(/C=C/c2ccc(C(F)(F)F)cc2)cc1 , system: hCA I (Homo sapiens).
A) < 4.00

Q) For hCA I (Homo sapiens), give pKi of the listed molecule: Oc1ccc(/C=C/c2ccc(Cl)cc2Cl)cc1Cl
A) < 4.00

Q) State pKi on hCA I (Homo sapiens). Entry: Oc1ccc(/C=C/c2ccc(C(F)(F)F)cc2)cc1Cl
A) 4.06

Q) GET pKi where system = hCA I (Homo sapiens) and item = Oc1ccc(/C=C/c2ccc(Cl)cc2Cl)cc1
A) < 4.00

---

Consider the following molecules; for each one, report its Ki.
The reply should contain only the number, in µM.

Q) Write Ki of Oc1ccc(C=Cc2cc(O)cc(O)c2)cc1 [RSV, 3,4′,5-trihydroxystilbene, reference compound] ; system used: hCA XII (Homo sapiens)
Sequence (O43570 25-354): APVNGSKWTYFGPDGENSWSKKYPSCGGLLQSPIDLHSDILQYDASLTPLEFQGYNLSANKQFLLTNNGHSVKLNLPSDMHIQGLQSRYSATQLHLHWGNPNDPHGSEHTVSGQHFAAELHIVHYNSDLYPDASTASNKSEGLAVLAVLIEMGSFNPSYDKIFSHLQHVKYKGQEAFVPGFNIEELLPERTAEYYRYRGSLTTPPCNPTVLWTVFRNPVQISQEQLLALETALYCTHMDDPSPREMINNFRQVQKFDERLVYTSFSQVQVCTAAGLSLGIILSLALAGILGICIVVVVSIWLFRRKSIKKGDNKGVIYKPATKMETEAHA
A) 0.9

Q) Under hCA XII (Homo sapiens), report Ki for Oc1ccc(/C=C/c2ccc(C(F)(F)F)cc2)cc1Cl
A) 6.9

---

Would you mind telling me the reported pKi of each entry?
Units for pKi: none; it is -log10 of a concentration expressed in mol/L.

Q) GET pKi where system = hCA IX (Homo sapiens, UniProt Q16790) and item = Oc1ccc(/C=C/c2ccc(C(F)(F)F)cc2)cc1
A) 4.02

Q) GET pKi | system: hCA IX (Homo sapiens, UniProt Q16790) | item: Oc1ccc(/C=C/c2ccc(Cl)cc2Cl)cc1Cl
A) 4.09

Q) Find pKi for Oc1ccc(C=Cc2cc(O)cc(O)c2)cc1 [RSV, 3,4′,5-trihydroxystilbene, reference compound] on hCA IX (Homo sapiens, UniProt Q16790) and write it down.
A) 6.10

Q) Return reported pKi for target or system hCA IX (Homo sapiens, UniProt Q16790), item Oc1ccc(/C=C/c2ccc(C(F)(F)F)cc2)cc1Cl .
A) 4.76

Q) Report the value of pKi obtained on hCA IX (Homo sapiens, UniProt Q16790) for Oc1ccc(/C=C/c2ccccc2)cc1Cl .
A) 4.63

Q) Give pKi for COc1ccc(/C=C/c2ccc(O)cc2)cc1 tested on hCA IX (Homo sapiens, UniProt Q16790).
A) 4.09

---

System Name: hCA VA (Homo sapiens, UniProt P35218)
Construct: His-tag (N); made in house; host or cells: Escherichia coli BL21 (DE3)
Sequence (P35218 39-305): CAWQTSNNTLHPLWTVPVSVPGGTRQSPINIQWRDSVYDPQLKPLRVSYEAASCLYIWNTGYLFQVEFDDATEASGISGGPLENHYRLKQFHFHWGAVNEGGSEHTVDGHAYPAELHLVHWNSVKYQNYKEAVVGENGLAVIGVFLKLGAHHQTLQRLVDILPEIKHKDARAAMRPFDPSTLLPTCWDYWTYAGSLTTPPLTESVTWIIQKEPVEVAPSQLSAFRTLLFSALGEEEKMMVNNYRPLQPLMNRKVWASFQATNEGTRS
Assay Remarks: CA inhibition, stopped-flow CO2 hydration assay
Format: biochemical
Stated Conditions: stopped-flow technique; mean of three experiments, errors ±5–10%
Endpoint: Ki (µM)
Expressed in µM, but write only the number.

Q) Look up Ki of Oc1ccc(C=Cc2cc(O)cc(O)c2)cc1 [RSV, 3,4′,5-trihydroxystilbene, reference compound] and report it.
A) 4.7

---

System Name: Recombinant human MAO-B (Homo sapiens, UniProt P27338)
Sequence (P27338 whole entry): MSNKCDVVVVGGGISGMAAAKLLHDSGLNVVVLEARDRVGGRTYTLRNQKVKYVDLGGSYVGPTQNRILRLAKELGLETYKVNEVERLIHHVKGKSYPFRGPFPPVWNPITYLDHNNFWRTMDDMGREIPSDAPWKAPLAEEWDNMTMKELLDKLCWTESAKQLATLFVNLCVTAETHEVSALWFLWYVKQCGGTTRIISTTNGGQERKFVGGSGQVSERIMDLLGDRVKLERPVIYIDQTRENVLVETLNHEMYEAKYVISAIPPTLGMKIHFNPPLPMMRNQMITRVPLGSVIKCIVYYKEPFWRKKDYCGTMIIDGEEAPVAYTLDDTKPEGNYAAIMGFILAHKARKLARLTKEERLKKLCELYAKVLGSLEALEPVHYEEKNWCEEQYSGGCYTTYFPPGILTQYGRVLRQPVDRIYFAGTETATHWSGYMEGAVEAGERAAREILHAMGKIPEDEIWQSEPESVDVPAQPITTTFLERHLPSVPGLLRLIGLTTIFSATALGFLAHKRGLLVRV
Assay Remarks: In vitro MAO-B inhibition assay (kynuramine, fluorescence)
Stated Conditions: kynuramine substrate, mean ± S.D. of three independent experiments
Endpoint: pIC50
Lab note: report pIC50 as minus log10 of the concentration in molar units, number only.

Q) Note down pIC50 recorded for COc1ccc(/C=C/c2ccc(O)cc2)cc1
A) 6.73

Q) Please indicate pIC50 recorded for Oc1ccc(/C=C/c2ccc(Cl)cc2Cl)cc1Cl
A) 5.84

Q) Please give the documented pIC50 of Oc1ccc(/C=C/c2ccc(Cl)cc2Cl)cc1
A) 5.82

Q) Determine from records and report pIC50 for N#Cc1ccc(/C=C/c2ccc(O)cc2)cc1
A) 6.99

Q) Note down pIC50 recorded for Oc1ccc(/C=C/c2ccccc2)cc1Cl
A) 6.81

Q) For the compound Oc1ccc(/C=C/c2ccc(C(F)(F)F)cc2)cc1Cl , give its reported pIC50.
A) 7.96

Q) Return pIC50 (reported value) for this compound: Oc1ccc(/C=C/c2ccc(C(F)(F)F)cc2)cc1
A) 4.85
